Test system: NF90-8 cells
Assay: Cell proliferation assay (Cell Counting Kit-8), NF90-8
Format: cell-based
Conditions: Homo sapiens, 72 h
Experimental: The human NF1-associated MPNST cell line NF90.8 was privately provided and sNF96.2 was purchased from the American Type Culture Collection. […] These cell lines were not authenticated. All cells were tested and found free of mycoplasma contamination. A cell proliferation assay was performed using Cell Counting Kit-8. Cells in 100 μL media in a 96-well plate were incubated with 10 μL of WST-8, a tetrazolium salt, at 37° C. in a tissue culture incubator. Absorbance was measured at 450 nm. […]
readout.kind: IC50 (nM)

INSERT INTO assay_data (molecule, endpoint_value) VALUES
  ('COC(=O)Nc1nc2ccc(C(=O)c3ccccc3)cc2[nH]1 [MBZ, mebendazole]', 180);
